- Tested on: HT-29 (human colon adenocarcinoma)
- assay_notes: MTS cytotoxicity / antiproliferative assay
- Assay type: cell-based
- run_conditions: Homo sapiens, HT-29, 48 h, read-out: HT-29 48 h(IC50), Table 7 maple extracts; 48 h; unit inferred
test_readout: pIC50
For clarity, pIC50 is expressed as the negative log10 of concentration in mol/L.

The reported value for COc1cc([C@@H]2c3cc4c(cc3[C@@H](O[C@@H]3O[C@@H]5CO[C@@H](C)O[C@H]5[C@H](O)[C@H]3O)[C@H]3COC(=O)[C@H]23)OCO4)cc(OC)c1O [Etoposide, reference compound] in terms of pIC50 is 4.87

----------
Catalogue of IC50 readings, one per entry.
- Tested on: HT-29 (human colon adenocarcinoma)
- assay_notes: MTS cytotoxicity / antiproliferative assay
- Assay type: cell-based
- run_conditions: Homo sapiens, HT-29, 48 h, read-out: HT-29 48 h(IC50), Table 6 maple compounds; 48 h; unit inferred
Quick note: give the figure in µM, leave out the unit.

- compound: "COc1cc(/C=C/CO)cc(OC)c1O [compound 20, syringenin]"
  reading: 126

Just so you know, measured IC50 for COc1cc([C@@H]2c3cc4c(cc3[C@@H](O[C@@H]3O[C@@H]5CO[C@@H](C)O[C@H]5[C@H](O)[C@H]3O)[C@H]3COC(=O)[C@H]23)OCO4)cc(OC)c1O [Etoposide, reference compound] came out at 21.2

Reported IC50 of COc1cc(C2Oc3c(OC)cc(CCCO)cc3C2CO)cc(OC)c1O (stereo not shown) [compound 4] : 88.7

Input O=C(OC[C@H]1OC[C@H](OC(=O)c2cc(O)c(O)c(O)c2)[C@@H](O)[C@@H]1O)c1cc(O)c(O)c(O)c1 [compound 70, 2,6-di-O-galloyl-1,5-anhydro-D-glucitol] . Output IC50: 77

Form field IC50, entry O=Cc1ccc(O)c(O)c1 [compound 14, catechaldehyde] : 71.6

// IC50 lookup, compound = COc1cc(/C=C/C(=O)O)ccc1O [Ferulic Acid] , result: 128

Measured IC50 of COc1cc2ccc(=O)oc2c(O)c1O [compound 9, fraxetin] : 101

Measured IC50, COc1cc(C(=O)O)cc(OC)c1O [compound 19, syringic acid] : 126

Just so you know, measured IC50 for COc1cc2ccc(=O)oc2cc1O [compound 8, scopoletin] came out at 78.7

IC50 measured on COc1cc(C(=O)C(O)CO)ccc1O (stereo not shown) [compound 22, C-veratroylglycol] = 96

----------
- System: HT-29 (human colon adenocarcinoma)
- assay_notes: MTS cytotoxicity / antiproliferative assay
- Type: cell-based
- run_conditions: Homo sapiens, HT-29, 72 h, Table 6 maple compounds; 72 h; unit inferred; read-out: HT-29 72 h(IC50)
- Protocol: Cell lines included three human colon cancer cells: HT-29 (human colon adenocarcinoma), HCT116 (human colon carcinoma) and Caco-2 (human epithelial colorectal adenocarcinoma). In addition, normal human colon cells are included: CCD-^18Co (human colon fibroblasts). […] The assay is carried out to measure the IC50 values for samples. […] Data (see tables 6 to 9) are expressed as mean±SE for three replications on each cell line.
Each entry below carries its recorded pIC50.
Recall that pIC50 is obtained by taking minus log10 of the concentration measured in molar.

- molecule: "COc1cc2ccc(=O)oc2cc1O [compound 8, scopoletin]"
  pIC50: 4.15

Entry O=Cc1ccc(O)c(O)c1 [compound 14, catechaldehyde] — recorded pIC50 = 4.19

Sure, the documented pIC50 for COc1cc(C2Oc3c(OC)cc(CCCO)cc3C2CO)cc(OC)c1O (centres unmarked) [compound 4] is 4.17

# pIC50 of COc1cc2ccc(=O)oc2c(O)c1O [compound 9, fraxetin] = 4.03

For reference, reported pIC50 for COc1cc(/C=C/C(=O)O)ccc1O [Ferulic Acid] stands at 3.92

----------
- Test system: HT-29 (human colon adenocarcinoma)
- assay_notes: MTS cytotoxicity / antiproliferative assay
- Format: cell-based
- run_conditions: Homo sapiens, HT-29, 72 h, read-out: Antiproliferative activity HT-29 72 h (IC50)
test_readout: pIC50
Give only the number. pIC50 is defined as minus log10 of concentration in molar units.

Summary for this compound, COc1cc(C=O)cc(OC)c1O [compound 16, syringaldehyde] : pIC50 is 4.16

----------
- Test system: HT-29 (human colon adenocarcinoma)
- assay_notes: MTS cytotoxicity / antiproliferative assay
- Assay type: cell-based
- run_conditions: Homo sapiens, HT-29, 72 h, Table 6 maple compounds; 72 h; unit inferred; read-out: HT-29 72 h(IC50)
test_readout: pIC50
The read-out pIC50 is expressed as -log10 of concentration in moles per litre.

Record `COc1cc([C@@H](O)[C@@H](CO)Oc2ccc(CCCO)cc2OC)ccc1O` . Reported pIC50: 3.96

Lab book: pIC50 of COc1cc([C@@H]2c3cc4c(cc3[C@@H](O[C@@H]3O[C@@H]5CO[C@@H](C)O[C@H]5[C@H](O)[C@H]3O)[C@H]3COC(=O)[C@H]23)OCO4)cc(OC)c1O [Etoposide, reference compound] noted as 4.89

pIC50 reading for `COc1cc(C(=O)O)cc(OC)c1O` : 3.93

pIC50 reading for O=C(OC[C@H]1OC[C@H](OC(=O)c2cc(O)c(O)c(O)c2)[C@@H](O)[C@@H]1O)c1cc(O)c(O)c(O)c1 [compound 70, 2,6-di-O-galloyl-1,5-anhydro-D-glucitol] : 4.29

----------
Reported IC50 values for the following compounds.
- System: CCD-18Co (normal human colon fibroblasts)
- assay_notes: MTS cytotoxicity / antiproliferative assay
- Type: cell-based
- run_conditions: Homo sapiens, CCD-18Co, 72 h; pure isolated compounds; read-out: Antiproliferative activity CCD-8Co 72 h (IC50)
Kindly provide the numeric value in µM only, without the unit symbol.

Check out these entries, answers already filled in.
- structure_notation: "OCCc1ccc(O)cc1"
  readout_unit: "µM"
  IC50: 145
- structure_notation: "COc1cc2ccc(=O)oc2cc1O"
  readout_unit: "µM"
  IC50: 103

# context switch: different compound, same IC50
The recorded IC50 for entry `O=Cc1ccc(O)c(O)c1` equals 126
